- Test system: rat and mouse 2-year carcinogenicity bioassay, tumor evidence
- PROCEDURE DETAILS: Consolidated carcinogenicity assay summary data
- ASSAY CONTEXT: Route (rodents): Gavage
Records with an inconclusive call do not appear. The source made the active and inactive calls. How the calls were made is not given here.

MOLECULE: CN(C)c1ccccc1
TESTED ON: rat and mouse 2-year carcinogenicity bioassay, tumor evidence
carcinogen call: active; some evidence

MOLECULE: CC=CC=CC=O
TESTED ON: rat and mouse 2-year carcinogenicity bioassay, tumor evidence
carcinogen call: active; clear evidence

MOLECULE: ClC(Br)Br
TESTED ON: rat and mouse 2-year carcinogenicity bioassay, tumor evidence
carcinogen call: active; no evidence

MOLECULE: O=C(O)c1cc(N=Nc2ccc(S(=O)(=O)Nc3ccccn3)cc2)ccc1O
TESTED ON: rat and mouse 2-year carcinogenicity bioassay, tumor evidence
carcinogen call: active; some evidence

MOLECULE: CC(Cl)CCl (stereo not drawn)
TESTED ON: rat and mouse 2-year carcinogenicity bioassay, tumor evidence
carcinogen call: active; no evidence

MOLECULE: C=C(C)[C@H]1CC=C(C)CC1
TESTED ON: rat and mouse 2-year carcinogenicity bioassay, tumor evidence
carcinogen call: active; clear evidence

MOLECULE: OCC1CO1 (stereo not drawn)
TESTED ON: rat and mouse 2-year carcinogenicity bioassay, tumor evidence
carcinogen call: active; clear evidence

MOLECULE: ClC=CCCl
TESTED ON: rat and mouse 2-year carcinogenicity bioassay, tumor evidence
carcinogen call: active; clear evidence

MOLECULE: CC(C)=CCl
TESTED ON: rat and mouse 2-year carcinogenicity bioassay, tumor evidence
carcinogen call: active; clear evidence

MOLECULE: CC(O)c1ccccc1 (stereo not drawn)
TESTED ON: rat and mouse 2-year carcinogenicity bioassay, tumor evidence
carcinogen call: active; some evidence

MOLECULE: c1ccc2occc2c1
TESTED ON: rat and mouse 2-year carcinogenicity bioassay, tumor evidence
carcinogen call: active; no evidence

MOLECULE: O=Cc1ccccc1
TESTED ON: rat and mouse 2-year carcinogenicity bioassay, tumor evidence
carcinogen call: active; no evidence

MOLECULE: CC1(C)COC1=O
TESTED ON: rat and mouse 2-year carcinogenicity bioassay, tumor evidence
carcinogen call: active; clear evidence

MOLECULE: C=CC(=O)OCC
TESTED ON: rat and mouse 2-year carcinogenicity bioassay, tumor evidence
carcinogen call: active; clear evidence

MOLECULE: CC(CCl)OC(C)CCl (stereo not drawn)
TESTED ON: rat and mouse 2-year carcinogenicity bioassay, tumor evidence
carcinogen call: active; no evidence

MOLECULE: BrC(Br)Br
TESTED ON: rat and mouse 2-year carcinogenicity bioassay, tumor evidence
carcinogen call: active; some evidence

----------
- Test system: rat and mouse 2-year carcinogenicity bioassay, tumor evidence
- PROCEDURE DETAILS: Consolidated carcinogenicity assay summary data
- ASSAY CONTEXT: Route (rodents): Interperitoneal
Results filed as inconclusive are left out. The source made the active and inactive calls. No rule for the calls is given here.
RECORDED ENDPOINT: carcinogen call

COMPOUND: COc1cc2c(c3c1c(=O)c1ccccc1n3C)C=CC(C)(C)O2
TESTED ON: rat and mouse 2-year carcinogenicity bioassay, tumor evidence
VALUE REPORTED: active; clear evidence
//
COMPOUND: COc1ccc(C(=O)/C(Br)=C\C(=O)O)cc1
TESTED ON: rat and mouse 2-year carcinogenicity bioassay, tumor evidence
VALUE REPORTED: active; clear evidence
//
COMPOUND: O=P1(NCCCl)OCCCN1CCCl (centres undefined)
TESTED ON: rat and mouse 2-year carcinogenicity bioassay, tumor evidence
VALUE REPORTED: active; no evidence
//
COMPOUND: CNNCc1ccc(C(=O)NC(C)C)cc1
TESTED ON: rat and mouse 2-year carcinogenicity bioassay, tumor evidence
VALUE REPORTED: active; clear evidence
//
COMPOUND: CC(COc1ccccc1)N(CCCl)Cc1ccccc1 (centres undefined)
TESTED ON: rat and mouse 2-year carcinogenicity bioassay, tumor evidence
VALUE REPORTED: active; clear evidence
//
COMPOUND: CC(CN1CC(=O)NC(=O)C1)N1CC(=O)NC(=O)C1 (centres undefined)
TESTED ON: rat and mouse 2-year carcinogenicity bioassay, tumor evidence
VALUE REPORTED: active; no evidence
//
COMPOUND: S=P(N1CC1)(N1CC1)N1CC1
TESTED ON: rat and mouse 2-year carcinogenicity bioassay, tumor evidence
VALUE REPORTED: active; clear evidence

----------
- Test system: rat and mouse 2-year carcinogenicity bioassay, tumor evidence
- PROCEDURE DETAILS: Consolidated carcinogenicity assay summary data
- ASSAY CONTEXT: Route (rodents): Dosed feed
Results filed as inconclusive are left out. Calls of active or inactive are those of the source. The rule behind the calls is not given here.
RECORDED ENDPOINT: carcinogen call

COMPOUND: CCCCOC(=O)c1ccccc1C(=O)OCc1ccccc1
RECORDED ENDPOINT: carcinogen call
VALUE REPORTED: active; some evidence
//
COMPOUND: CCn1c2ccccc2c2cc(N)ccc21
RECORDED ENDPOINT: carcinogen call
VALUE REPORTED: active; clear evidence
//
COMPOUND: O=C(c1ccccc1)c1ccccc1
RECORDED ENDPOINT: carcinogen call
VALUE REPORTED: active; some evidence
//
COMPOUND: O=C(O)C(F)(F)C(F)(F)C(F)(F)C(F)(F)C(F)(F)C(F)(F)C(F)(F)F
RECORDED ENDPOINT: carcinogen call
VALUE REPORTED: active; clear evidence
//
COMPOUND: Nc1ccccc1
RECORDED ENDPOINT: carcinogen call
VALUE REPORTED: active; clear evidence
//
COMPOUND: Oc1c(Cl)c(Cl)c(Cl)c(Cl)c1Cl
RECORDED ENDPOINT: carcinogen call
VALUE REPORTED: active; some evidence
//
COMPOUND: ClC1(Cl)C2(Cl)C3(Cl)C4(Cl)C(Cl)(Cl)C5(Cl)C3(Cl)C1(Cl)C5(Cl)C24Cl (configuration not stated)
RECORDED ENDPOINT: carcinogen call
VALUE REPORTED: active; clear evidence
//
COMPOUND: COC(=O)[C@H]1[C@H]2C[C@@H]3c4[nH]c5cc(OC)ccc5c4CCN3C[C@H]2C[C@@H](OC(=O)c2cc(OC)c(OC)c(OC)c2)[C@@H]1OC
RECORDED ENDPOINT: carcinogen call
VALUE REPORTED: active; clear evidence
//
COMPOUND: Cc1cccc(C)c1N
RECORDED ENDPOINT: carcinogen call
VALUE REPORTED: active; clear evidence
//
COMPOUND: Nc1ccc(Cl)cc1N
RECORDED ENDPOINT: carcinogen call
VALUE REPORTED: active; clear evidence
//
COMPOUND: Nc1ccc(Cl)c(N)c1
RECORDED ENDPOINT: carcinogen call
VALUE REPORTED: active; clear evidence

----------
- System: rat and mouse 2-year carcinogenicity bioassay, tumor evidence
- PROCEDURE DETAILS: Consolidated carcinogenicity assay summary data
- ASSAY CONTEXT: Route (rodents): Gavage
Inconclusive results are not listed. Active and inactive are the calls of the source. No rule for the calls is given here.

COMPOUND: C=CC(=O)NCO
carcinogen call: active; no evidence
--
COMPOUND: Nc1cc([N+](=O)[O-])ccc1O
carcinogen call: active; some evidence
--
COMPOUND: ClCCCl
carcinogen call: active; clear evidence
--
COMPOUND: O=C/C=C/O
carcinogen call: active; clear evidence
--
COMPOUND: c1ccoc1
carcinogen call: active; clear evidence
--
COMPOUND: COC(N)=O
carcinogen call: active; clear evidence
--
COMPOUND: OCc1c[nH]c2ccccc12
carcinogen call: active; no evidence
--
COMPOUND: OC(O)C(Cl)(Cl)Cl
carcinogen call: active
--
COMPOUND: C[C@]12CC[C@@H]3c4ccc(OC(=O)Cc5ccc(N(CCCl)CCCl)cc5)cc4CC[C@H]3[C@@H]1CC[C@@H]2OC(=O)Cc1ccc(N(CCCl)CCCl)cc1
carcinogen call: active; no evidence
--
COMPOUND: Nc1ccc(O)c(N)c1
carcinogen call: active; no evidence
--
COMPOUND: Cc1ccc(N(C)C)cc1
carcinogen call: active; clear evidence
--
COMPOUND: [Cl-].[Cl-].[Hg+2]
carcinogen call: active; some evidence
--
COMPOUND: Clc1ccc(N=Nc2ccc(Cl)c(Cl)c2)cc1Cl
carcinogen call: active; clear evidence
--
COMPOUND: CC1C(=O)C[C@]2(C(C)C)C[C@H]12 (some centres undefined)
carcinogen call: active; some evidence
--
COMPOUND: O=[N+]([O-])c1ccc(Nc2ccc(Nc3ccccc3)c(S(=O)(=O)O)c2)c([N+](=O)[O-])c1
carcinogen call: active; no evidence
--
COMPOUND: ClCc1cccnc1
carcinogen call: active; clear evidence
--
COMPOUND: CC(C)CCC[C@@H](C)[C@H]1CC[C@H]2[C@@H]3CC=C4C[C@@H](OC(=O)Cc5ccc(N(CCCl)CCCl)cc5)CC[C@]4(C)[C@H]3CC[C@]12C
carcinogen call: active; no evidence
--
COMPOUND: C=C(C)CCl
carcinogen call: active; clear evidence
--
COMPOUND: COc1ccc(N)c(C)c1
carcinogen call: active; clear evidence
--
COMPOUND: Clc1ccc(Cl)cc1
carcinogen call: active; clear evidence
--
COMPOUND: C=CCOC(=O)CC(C)C
carcinogen call: active; clear evidence
--
COMPOUND: C=CCc1ccc(OC)c(OC)c1
carcinogen call: active; clear evidence
--
COMPOUND: Clc1ccc(-c2cc(Cl)c(Cl)cc2Cl)cc1Cl
carcinogen call: active
--
COMPOUND: Clc1cc2oc3c(Cl)c(Cl)c(Cl)cc3c2cc1Cl
carcinogen call: active
